Values compiled from ChEMBL document CHEMBL1212709.

- SYSTEM TESTED: Phospholipase D2 (Homo sapiens, UniProt O14939)
- Sequence (O14939 whole entry): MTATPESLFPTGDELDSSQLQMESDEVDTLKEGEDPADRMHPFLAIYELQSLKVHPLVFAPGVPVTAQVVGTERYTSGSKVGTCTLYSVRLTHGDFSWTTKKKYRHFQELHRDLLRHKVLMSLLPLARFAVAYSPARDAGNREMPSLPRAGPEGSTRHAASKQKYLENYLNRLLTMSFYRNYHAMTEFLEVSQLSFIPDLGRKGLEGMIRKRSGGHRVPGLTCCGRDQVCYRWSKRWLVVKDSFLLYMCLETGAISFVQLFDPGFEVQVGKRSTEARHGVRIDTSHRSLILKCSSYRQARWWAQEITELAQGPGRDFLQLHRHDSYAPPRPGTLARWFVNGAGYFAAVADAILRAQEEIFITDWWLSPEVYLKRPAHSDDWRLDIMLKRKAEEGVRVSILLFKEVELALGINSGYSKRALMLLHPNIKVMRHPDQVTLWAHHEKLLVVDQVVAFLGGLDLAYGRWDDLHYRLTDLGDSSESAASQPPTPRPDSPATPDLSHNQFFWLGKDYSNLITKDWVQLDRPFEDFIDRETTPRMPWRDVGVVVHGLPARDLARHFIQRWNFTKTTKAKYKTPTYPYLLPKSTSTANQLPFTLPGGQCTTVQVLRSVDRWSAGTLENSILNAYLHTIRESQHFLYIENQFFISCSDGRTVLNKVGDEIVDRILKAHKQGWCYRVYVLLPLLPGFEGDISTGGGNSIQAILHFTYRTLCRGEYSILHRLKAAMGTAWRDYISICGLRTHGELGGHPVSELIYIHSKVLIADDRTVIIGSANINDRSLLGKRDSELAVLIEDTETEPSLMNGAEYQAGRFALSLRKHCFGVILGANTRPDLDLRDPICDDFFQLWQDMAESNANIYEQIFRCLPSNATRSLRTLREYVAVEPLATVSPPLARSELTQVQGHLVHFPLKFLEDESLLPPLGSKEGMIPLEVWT
- TEST DETAILS: Inhibition of human PLD2 assessed as release of methyl-[3H]choline from choline-methyl-[3H]dipalmitoylphosphatidylcholine after 30 mins by exogenous substrate assay
Provide the reported IC50 of each item.
Your answer is read as nM, so omit the unit and give the number.

Report IC50 for O=C(NCCN1CCC(n2c(O)nc3ccccc32)CC1)c1cccc2c1-c1ccccc1C2=O
600

Please give measured IC50 of the following entry: O=C(c1ccc(OCCN2CCCCC2)cc1)c1c(-c2ccc(O)cc2)sc2cc(O)ccc12
3400

Fill in IC50 for record O=C(NCCN1CCC(n2c(=O)[nH]c3ccccc32)CC1)c1cc(Cl)cc(Cl)c1
1900

---

- SYSTEM TESTED: Phospholipase D1 (Homo sapiens)
- Sequence (Q13393 whole entry): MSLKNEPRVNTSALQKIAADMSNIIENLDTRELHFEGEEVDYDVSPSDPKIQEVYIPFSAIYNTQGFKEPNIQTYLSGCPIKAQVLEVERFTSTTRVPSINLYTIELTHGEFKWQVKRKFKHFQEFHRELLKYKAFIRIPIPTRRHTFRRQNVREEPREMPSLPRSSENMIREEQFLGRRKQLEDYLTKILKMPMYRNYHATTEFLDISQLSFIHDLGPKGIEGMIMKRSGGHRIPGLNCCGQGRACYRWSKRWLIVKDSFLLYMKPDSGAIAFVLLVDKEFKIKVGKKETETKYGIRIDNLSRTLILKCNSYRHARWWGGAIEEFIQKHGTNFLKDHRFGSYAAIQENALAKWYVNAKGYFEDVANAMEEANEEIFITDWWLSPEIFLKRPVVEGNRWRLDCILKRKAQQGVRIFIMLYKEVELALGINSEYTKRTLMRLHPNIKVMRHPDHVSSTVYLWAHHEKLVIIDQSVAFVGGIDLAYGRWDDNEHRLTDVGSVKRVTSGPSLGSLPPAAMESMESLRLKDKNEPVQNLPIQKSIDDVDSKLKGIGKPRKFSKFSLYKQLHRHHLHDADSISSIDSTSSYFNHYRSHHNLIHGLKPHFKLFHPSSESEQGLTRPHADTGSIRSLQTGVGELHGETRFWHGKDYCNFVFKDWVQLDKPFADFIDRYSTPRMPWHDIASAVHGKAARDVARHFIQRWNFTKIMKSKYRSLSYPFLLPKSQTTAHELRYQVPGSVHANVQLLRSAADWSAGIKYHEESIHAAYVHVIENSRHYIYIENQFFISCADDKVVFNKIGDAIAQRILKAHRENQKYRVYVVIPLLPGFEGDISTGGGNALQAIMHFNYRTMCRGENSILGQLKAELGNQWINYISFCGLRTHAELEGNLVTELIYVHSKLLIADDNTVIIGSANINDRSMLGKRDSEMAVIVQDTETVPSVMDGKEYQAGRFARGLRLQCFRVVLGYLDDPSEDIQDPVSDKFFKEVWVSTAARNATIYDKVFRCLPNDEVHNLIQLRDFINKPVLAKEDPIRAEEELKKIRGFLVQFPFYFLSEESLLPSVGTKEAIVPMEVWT
- TEST DETAILS: Inhibition of human PLD1b
RECORDED METRIC: IC50

State, for Phospholipase D1 (Homo sapiens), measured IC50 of the compound listed here: CC(C)=CCC/C(C)=C/CC/C(C)=C/[C@H]1[C@H](COP(=O)(O)OP(=O)(O)O)[C@@]1(C)CC/C=C(\C)CCC=C(C)C
> 1000 nM

---

- SYSTEM TESTED: Phospholipase D2 (Homo sapiens, UniProt O14939)
- TEST DETAILS: Inhibition of human PLD2 assessed as release of methyl-[3H]choline from choline-methyl-[3H]dipalmitoylphosphatidylcholine after 30 mins by exogenous substrate assay
RECORDED METRIC: pIC50
For clarity, pIC50 is expressed as the negative log10 of concentration in mol/L.

Determine from records and report pIC50 for O=C(c1ccc(F)cc1)N(CCN1CCC(n2c(=O)[nH]c3ccccc32)CC1)C(=O)c1ccc(F)cc1
5.66

Report measured pIC50; entry is O=C(NCCN1CCC(n2c(=O)[nH]c3ccccc32)CC1)n1c2ccccc2c2ccccc21
6.00

Specify reported pIC50 for the molecule shown: O=C(NCCN1CCC(n2c(O)nc3ccccc32)CC1)c1ccc(Cl)cc1
6.89

Report measured pIC50; entry is O=C(NCCN1CCC2(CC1)C(=O)NCN2c1ccccc1)c1ccc(C(F)(F)F)cc1
5.37

Report pIC50, nothing else, for this molecule: O=C(NCCN1CCC(n2c(O)nc3ccccc32)CC1)c1ccc(Cl)c(Cl)c1
6.60

// Input: O=C(NCCN1CCC(n2c(=O)[nH]c3ccccc32)CC1)c1ccc[nH]1 . Output its pIC50 only.
5.92

Read off the recorded pIC50 for O=C(NCCN1CCC(n2c(=O)[nH]c3ccccc32)CC1)c1cc2cc(F)ccc2[nH]1
7.77

Give me measured pIC50, please, for this molecule: O=C(NCCN1CCC(n2c(=O)[nH]c3ccccc32)CC1)c1cc(Br)c(Br)o1
6.77

Give the measured pIC50 for O=C(NCCN1CCC(n2c(=O)[nH]c3ccccc32)CC1)c1cc2ccccc2s1
6.47

Using known records, supply pIC50 for Cc1ccc(C(=O)NCCN2CCC(n3c(O)nc4ccccc43)CC2)cc1
5.96

---

- SYSTEM TESTED: Phospholipase D1 (Homo sapiens, UniProt Q13393)
- TEST DETAILS: Inhibition of human PLD1 assessed as release of methyl-[3H]choline from choline-methyl-[3H]dipalmitoylphosphatidylcholine after 30 mins by exogenous substrate assay
So basically, if IC50 comes in under 300 nM it's y, and if it's 300 nM or more it's n.

Just wondering, is IC50 of O=C(NCCN1CCC(n2c(=O)[nH]c3ccccc32)CC1)c1cc(Br)c(Br)o1 below 300 nM?
y

Determine if O=C(NCCN1CCC(n2c(=O)[nH]c3ccccc32)CC1)c1cc2cc(F)ccc2[nH]1 shows IC50 strictly lower than 300 nM.
y

Input O=C(c1ccc(F)cc1)N(CCN1CCC(n2c(=O)[nH]c3ccccc32)CC1)C(=O)c1ccc(F)cc1 ; condition: IC50 strictly below 300 nM. Does it hold?
n

Quick check: does C=Cc1ccc(C(=O)NCCN2CCC(n3c(=O)[nH]c4ccccc43)CC2)cc1 have IC50 under 300 nM?
n

Input O=C(NCCN1CCC(n2c(=O)[nH]c3ccccc32)CC1)c1cc(Cl)cc(Cl)c1 ; condition: IC50 strictly below 300 nM. Does it hold?
n

A record lists COc1ccc(C(=O)NCCN2CCC(n3c(=O)[nH]c4ccccc43)CC2)cc1 . Is its IC50 below 300 nM?
n

Lab log: compare recorded IC50 with 300 nM; is it strictly lower for O=C(NCCN1CCC(n2c(=O)[nH]c3ccccc32)CC1)c1cc2ccccc2s1 ?
y

hey, is IC50 for O=C(c1ccc(OCCN2CCCCC2)cc1)c1c(-c2ccc(O)cc2)sc2cc(O)ccc12 lower than 300 nM or not?
n

---

- SYSTEM TESTED: Phospholipase D1 (Rattus norvegicus, UniProt P70496)
- Sequence (P70496 whole entry): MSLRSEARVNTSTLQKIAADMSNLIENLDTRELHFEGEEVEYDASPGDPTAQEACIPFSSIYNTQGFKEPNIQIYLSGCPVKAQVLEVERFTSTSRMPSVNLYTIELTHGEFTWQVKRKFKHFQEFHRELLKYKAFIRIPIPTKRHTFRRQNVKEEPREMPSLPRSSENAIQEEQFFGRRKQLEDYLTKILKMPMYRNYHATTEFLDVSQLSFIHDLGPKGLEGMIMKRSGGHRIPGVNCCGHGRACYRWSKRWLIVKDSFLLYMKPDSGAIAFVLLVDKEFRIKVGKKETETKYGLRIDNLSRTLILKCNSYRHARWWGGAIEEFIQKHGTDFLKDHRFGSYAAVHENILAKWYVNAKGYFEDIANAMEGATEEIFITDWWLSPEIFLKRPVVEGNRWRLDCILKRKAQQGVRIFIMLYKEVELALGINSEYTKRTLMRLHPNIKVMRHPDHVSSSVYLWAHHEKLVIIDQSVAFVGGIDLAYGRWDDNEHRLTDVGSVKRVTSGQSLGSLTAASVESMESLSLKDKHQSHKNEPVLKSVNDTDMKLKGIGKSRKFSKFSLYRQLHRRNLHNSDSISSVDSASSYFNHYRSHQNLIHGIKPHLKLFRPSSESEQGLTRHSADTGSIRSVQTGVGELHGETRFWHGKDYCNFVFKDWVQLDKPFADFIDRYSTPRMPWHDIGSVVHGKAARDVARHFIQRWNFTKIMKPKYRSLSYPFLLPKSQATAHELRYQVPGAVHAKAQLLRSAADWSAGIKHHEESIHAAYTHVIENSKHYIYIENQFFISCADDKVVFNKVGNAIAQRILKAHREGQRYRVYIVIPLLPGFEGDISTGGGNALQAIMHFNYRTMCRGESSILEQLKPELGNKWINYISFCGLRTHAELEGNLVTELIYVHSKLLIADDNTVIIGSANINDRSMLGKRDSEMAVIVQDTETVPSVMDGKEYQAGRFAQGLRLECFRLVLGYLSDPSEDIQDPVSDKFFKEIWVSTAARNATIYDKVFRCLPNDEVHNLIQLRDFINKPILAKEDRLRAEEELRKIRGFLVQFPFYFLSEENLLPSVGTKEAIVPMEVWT
- TEST DETAILS: Inhibition of N-terminally truncated rat PLD1 assessed as release of methyl-[3H]choline from choline-methyl-[3H]dipalmitoylphosphatidylcholine after 30 mins by exogenous substrate assay
RECORDED METRIC: IC50 (µM)
The reply should be a number in µM, with the unit left off.

Please report IC50 for the following compound: O=C(NCCN1CCC(n2c(O)nc3ccccc32)CC1)c1ccc(Cl)cc1
0.91

Recall and state the measured IC50 for O=C(NCCN1CCC(n2c(O)nc3ccccc32)CC1)c1cccc2c1-c1ccccc1C2=O .
1.1

Identify IC50 associated with the compound O=C(NCCN1CCC(n2c(=O)[nH]c3ccccc32)CC1)n1c2ccccc2c2ccccc21
7.2

Quick one: give measured IC50 for O=C(NCCN1CCC(n2c(=O)[nH]c3ccccc32)CC1)c1cc(Cl)cc(Cl)c1
3.5

Give reported IC50 value for Cc1ccc(C(=O)NCCN2CCC(n3c(O)nc4ccccc43)CC2)cc1
1.7

Please indicate IC50 recorded for O=C(NCCN1CCC(n2c(=O)[nH]c3ccccc32)CC1)c1cc2ccccc2s1
1

Return value of IC50 for input O=C(NCCN1CCC(n2c(=O)[nH]c3ccccc32)CC1)c1cc(Br)c(Br)o1 , no commentary.
2.9
